- Experimental details: Caco-2 permeation assay
- Type: in vitro ADME
- Assay conditions: human, pH 7.2; Caco-2, test compound 2 μM; Papp B-A / Papp A-B
Endpoint name: efflux ratio at 2 h, 2 μM

Kindly indicate its recorded efflux ratio at 2 h, 2 μM. Item: COc1cc(F)ccc1-c1cc(Nc2cc(CS(C)(=O)=O)ccn2)ncn1 1.1
